Values from PubChem BioAssay AID722

biological target: fMet-Leu-Phe receptor (Homo sapiens) (UniProt P21462); test: human FPR1 ligand displacement screen – cell-based, flow cytometry, SAR analysis, primary screen (AID 722); settings: FPR-expressing cells, fluorescent ligand binding inhibition, concentration not given here
Sequence (P21462 whole entry, looked up): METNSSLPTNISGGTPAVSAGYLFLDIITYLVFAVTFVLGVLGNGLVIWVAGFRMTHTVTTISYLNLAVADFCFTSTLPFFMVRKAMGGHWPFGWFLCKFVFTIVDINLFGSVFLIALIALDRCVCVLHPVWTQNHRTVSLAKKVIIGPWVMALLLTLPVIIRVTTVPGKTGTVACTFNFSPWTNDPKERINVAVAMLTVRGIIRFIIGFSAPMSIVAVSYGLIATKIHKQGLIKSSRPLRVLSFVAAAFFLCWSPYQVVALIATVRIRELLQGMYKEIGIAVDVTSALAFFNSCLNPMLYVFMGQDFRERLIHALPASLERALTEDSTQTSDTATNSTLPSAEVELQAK
Among all 1,300 compounds or so, about 40 (3%) were called active. No stated cut-off is given here; in the data, active means inhibition above about 30%; inactive means the rest. The sample holds actives, similar compounds and a random draw of the others, so the mix is not that of the screen.
Classes used: active, inactive

> print(dat)
                                    compound  assigned.label
 1  CCCC(=O)N1CCc2cc(OC)c(OC)cc2C1COc1ccc(OC)cc1 (stereo unspecified)        inactive
 2  COCCN1C(=O)C(O)=C(C(=O)c2cc3ccccc3o2)C1c1ccc(OCc2ccccc2)c(OC)c1 (stereo unspecified)        inactive
 3  COc1ccc(C2CC(=O)C3=C(C2)NC(=O)CC3c2cccs2)cc1OC (stereo unspecified)        inactive
 4  COc1cccc(Oc2c(C(F)(F)F)oc3cc(O)ccc3c2=O)c1        inactive
 5  CCC(C)(C(=O)NC1CCCCC1)N(Cc1cccs1)C(C)=O (stereo unspecified)          active
 6  O=C(C1=C(O)C(=O)N(CCCn2ccnc2)C1c1cccnc1)c1cccs1 (stereo unspecified)        inactive
 7  COc1ccc(C2C(C(=O)c3cccs3)=C(O)C(=O)N2CCCn2ccnc2)c(OC)c1 (stereo unspecified)        inactive
 8  O=C(C1=C(O)C(=O)N(CCCn2ccnc2)C1c1ccc(Cl)cc1)c1cccs1 (stereo unspecified)        inactive
 9  O=C(C1=C(O)C(=O)N(c2nncs2)C1c1ccccc1F)c1cccs1 (stereo unspecified)        inactive
10  COc1ccc(/C(O)=C2/C(=O)C(=O)N(CCc3c[nH]c4ccccc34)C2c2ccc(C(C)C)cc2)cc1 (stereo unspecified)          active
11       O=C(c1ccccc1F)N(Cc1ccco1)Cc1ccccc1F        inactive
12  O=C(C1=C(O)C(=O)N(CCCn2ccnc2)C1c1cccnc1)c1cc2ccccc2o1 (stereo unspecified)          active
13  O=C1C(=O)N(CCc2c[nH]c3ccccc23)C(c2ccc(Cl)cc2)/C1=C(/O)c1ccc(F)cc1 (stereo unspecified)        inactive
14   CCc1c(C)nc2c(-c3ccccc3OC)c(C)[nH]n2c1=O        inactive
15  CCc1ccc(C2/C(=C(/O)c3ccc(OC)cc3)C(=O)C(=O)N2CCc2c[nH]c3ccccc23)cc1 (stereo unspecified)        inactive
16  O=C(C1=C(O)C(=O)N(CCCN2CCOCC2)C1c1cccnc1)c1ccco1 (stereo unspecified)        inactive
17  O=C(O)CCCN1C(=O)C(=O)/C(=C(/O)c2ccccc2)C1/C=C/c1ccccc1 (stereo unspecified)          active
18  O=C(O)CCCN1C(=O)C(=O)/C(=C(/O)c2ccccc2)C1c1ccc(Br)cc1 (stereo unspecified)        inactive
19  Cc1ccc(/C(O)=C2\C(=O)C(=O)NC2c2ccc(F)cc2)cc1 (stereo unspecified)        inactive
20  COc1ccc(N(C(=O)c2cccnc2)S(=O)(=O)c2cccs2)cc1        inactive
21    CCOc1ccccc1C(=O)N(Cc1cccs1)c1ccc(C)cc1        inactive

* * *

biological target: fMet-Leu-Phe receptor (Homo sapiens) (UniProt P21462); experiment: human FPR1 ligand displacement screen – cell-based, flow cytometry, SAR analysis, primary screen (AID 722); details: FPR-expressing cells, fluorescent ligand binding inhibition, concentration not given here
Screen size: about 1,300 compounds; about 40 (3%) were called active. No stated cut-off is given here; in the data, active means inhibition above about 30%; inactive means the rest. The sample as a whole holds a higher share of actives than the screen did.
Classes used: active, inactive

> print(dat)
                                    molecule  assigned.label
 1  O=C(C(Cc1ccccc1)N1Cc2ccccc2C1=O)N1CCCCCC1 (stereo not drawn)        inactive
 2  COc1ccc(-c2c(C)[nH]n3c(=O)cc(Cc4ccccc4)nc23)cc1        inactive
 3  COc1ccc(/C(O)=C2\C(=O)C(=O)N(CCN3CCOCC3)C2c2ccc(Br)cc2)cc1 (stereo not drawn)        inactive
 4  COCCN1C(=O)C(=O)/C(=C(/O)c2ccccc2)C1c1ccc(OC)cc1OC (stereo not drawn)        inactive
 5  CCN1CCC2(CC1)N=C(c1ccccc1)C(=S)N2C(=O)c1ccccc1        inactive
 6  N#CCn1c(=O)n(Cc2ccccc2)c(=O)c2oc3ccccc3c21        inactive
 7  COc1ccc(C2C(C(=O)c3cccs3)=C(O)C(=O)N2CCN2CCOCC2)cc1 (stereo not drawn)        inactive
 8  O=C1C(=O)N(CCCN2CCOCC2)C(c2cccnc2)/C1=C(\O)c1ccccc1 (stereo not drawn)        inactive
 9  O=C(O)CCc1oc2cc(O)ccc2c(=O)c1-c1nc2ccccc2[nH]1        inactive
10  COc1ccc(C2/C(=C(/O)c3ccccc3)C(=O)C(=O)N2CCO)c(OC)c1 (stereo not drawn)        inactive
11  CCOC(=O)c1sc(N2C(=O)C(=O)/C(=C(/O)c3ccccc3)C2c2ccc(C(C)C)cc2)nc1C (stereo not drawn)        inactive
12  Cc1ccc(/C(O)=C2\C(=O)C(=O)NC2c2ccc(C)cc2)cc1 (stereo not drawn)        inactive
13  COc1ccc(C2/C(=C(\O)c3ccccc3)C(=O)C(=O)N2CCCn2ccnc2)c(OC)c1 (stereo not drawn)          active
14  COc1ccc(-c2c(C)[nH]n3c(=O)c4c(nc23)CCCC4)cc1          active
15  CCc1c(C)nc2c(-c3ccc(OC)cc3)c(C)[nH]n2c1=O        inactive
16  COc1cc(C)c2c(=O)c(Oc3ccccc3)c(C(F)(F)F)oc2c1        inactive
17  O=C(C1=C(O)C(=O)N(CCCN2CCOCC2)C1c1ccco1)c1ccco1 (stereo not drawn)        inactive
18  COc1ccc(C2SCC(=O)N2c2ccc(Br)cc2)cc1 (stereo not drawn)        inactive
19  COc1ccc(C2/C(=C(\O)c3ccccc3)C(=O)C(=O)N2c2cccc(Cl)c2)c(OC)c1 (stereo not drawn)          active
20  CCOc1ccc(/C(O)=C2\C(=O)C(=O)N(CCN3CCOCC3)C2c2ccc(Br)cc2)c(C)c1 (stereo not drawn)        inactive
21    CCc1c(C)sc(NC(=O)c2cccc(F)c2)c1C(=O)OC        inactive
22  COCCCN1C(=O)C(=O)/C(=C(/O)c2ccccc2)C1c1ccc2c(c1)OCO2 (stereo not drawn)        inactive
23  O=C1CSC(c2cccc(F)c2)N1c1c(F)cccc1F (stereo not drawn)        inactive
24  COc1ccc(-c2c(C)[nH]n3c(=O)c(Cc4ccccc4)c(C)nc23)cc1        inactive
25  COc1ccc(/C(O)=C2/C(=O)C(=O)N(CCCn3ccnc3)C2c2ccc(O)c(OC)c2)cc1 (stereo not drawn)        inactive
26  COC(=O)c1ccc(C2C(C(C)=O)=C(O)C(=O)N2c2ccc(OCC(=O)O)cc2)cc1 (stereo not drawn)        inactive
27  COc1ccc(C2C(C(=O)c3cccs3)=C(O)C(=O)N2CCN2CCOCC2)c(OC)c1 (stereo not drawn)          active
28        COC(=O)c1c(NC(=O)c2ccoc2C)sc(C)c1C        inactive
